Reported Ki values are given for each entry in this list.
- experimental_system: Delta-type opioid receptor (Mus musculus, UniProt P32300)
- Sequence (P32300 whole entry): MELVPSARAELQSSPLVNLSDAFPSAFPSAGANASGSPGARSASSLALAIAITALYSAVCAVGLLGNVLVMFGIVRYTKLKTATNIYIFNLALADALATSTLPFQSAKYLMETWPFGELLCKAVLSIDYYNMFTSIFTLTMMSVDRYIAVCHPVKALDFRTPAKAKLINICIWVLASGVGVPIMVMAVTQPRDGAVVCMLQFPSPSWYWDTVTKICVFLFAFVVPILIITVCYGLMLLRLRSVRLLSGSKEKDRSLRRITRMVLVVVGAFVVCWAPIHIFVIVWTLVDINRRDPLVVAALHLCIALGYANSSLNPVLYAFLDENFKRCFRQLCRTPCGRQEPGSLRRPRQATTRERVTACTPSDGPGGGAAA
- experimental_details: Binding affinity towards opioid receptor delta 1 expressed in CHO cells was determined by using [3H]DPDPE as radioligand
Where a SMILES comes first, the peptide text is derived from it.
Kindly write the number and append the unit.

[
  {
    "compound": "CC[C@H](C)[C@H](NC(=O)[C@H](CCCN=C(N)N)NC(=O)[C@H](CCCN=C(N)N)NC(=O)[C@H](CC(C)C)NC(=O)[C@H](Cc1ccccc1)NC(=O)[C@H](Cc1c[nH]c2ccccc12)NC(=O)CNC(=O)[C@@H](N)Cc1ccc(O)cc1)C(=O)N[C@@H](CCCN=C(N)N)C(=O)N1CCC[C@H]1C(=O)N[C@@H](CCCCN)C(N)=O",
    "experimental_system": "Delta-type opioid receptor (Mus musculus, UniProt P32300)",
    "Ki": "0.168 µM"
  }
]

Note down Ki recorded for CC[C@H](C)[C@H](NC(=O)[C@H](CCCN=C(N)N)NC(=O)[C@H](CCCN=C(N)N)NC(=O)[C@H](CN)NC(=O)[C@H](Cc1ccccc1)NC(=O)CNC(=O)[C@@H](CC(=O)O)NC(=O)[C@@H](N)Cc1ccc(O)cc1)C(=O)N[C@@H](CCCN=C(N)N)C(=O)N1CCC[C@H]1C(=O)N[C@@H](CCCCN)C(N)=O
0.0116 µM

Note down Ki recorded for CC[C@H](C)[C@H](NC(=O)[C@H](CCCN=C(N)N)NC(=O)[C@H](CCCN=C(N)N)NC(=O)[C@H](CN)NC(=O)[C@H](Cc1ccccc1)NC(=O)[C@H](C)NC(=O)[C@@H](CC(=O)O)NC(=O)[C@@H](N)Cc1ccc(O)cc1)C(=O)N[C@@H](CCCN=C(N)N)C(=O)N1CCC[C@H]1C(=O)N[C@@H](CCCCN)C(N)=O
0.0551 µM

Note down Ki recorded for CC[C@H](C)[C@H](NC(=O)[C@H](CCCN=C(N)N)NC(=O)[C@H](CCCN=C(N)N)NC(=O)[C@@H]1CNC(=O)C[C@@H](NC(=O)[C@@H](N)Cc2ccc(O)cc2)C(=O)NCC(=O)N[C@@H](Cc2ccccc2)C(=O)N1)C(=O)N[C@@H](CCCN=C(N)N)C(=O)N1CCC[C@H]1C(=O)N[C@@H](CCCCN)C(=O)N[C@@H](CC(C)C)C(=O)N[C@@H](CCCCN)C(N)=O (HELM PEPTIDE1{Y.[dD].G.F.[O=C([C@H](CN[*:3])N[*:1])[*:2]].R.R.I.R.P.K.L.K.[am]}$PEPTIDE1,PEPTIDE1,2:R3-5:R3$$$V2.0)
0.00331 µM
